MEASURED_PROPERTY: melting point

SMILES_STRUCTURE | RESULT
Cl.Cl.NCCc1c[nH]c2ccc(OCC(=O)N3CCN(c4ccc(-c5ncco5)cc4)CC3)cc12 | 64 to 66 °C (dec.)
NCCc1c[nH]c2ccc(OCC(=O)N3CCN(c4ccc(-c5cccs5)cc4)CC3)cc12.O=C(O)/C=C/C(=O)O | 154 to 156 °C
Cl.NCCc1c[nH]c2ccc(OCC(=O)N3CCN(c4ccc(-c5nn[nH]n5)cc4)CC3)cc12 | 225 to 227 °C
NCCc1c[nH]c2ccc(OCC(=O)N3CCN(c4ccc(-c5nc6ccccc6s5)cc4)CC3)cc12.O=C(O)/C=C/C(=O)O | 156 to 160 °C
